Target: T1, Transportin 3 (TNPO3) C511A mutant (human, UniProt Q9Y5L0 1-923, C511A)
T1 sequence: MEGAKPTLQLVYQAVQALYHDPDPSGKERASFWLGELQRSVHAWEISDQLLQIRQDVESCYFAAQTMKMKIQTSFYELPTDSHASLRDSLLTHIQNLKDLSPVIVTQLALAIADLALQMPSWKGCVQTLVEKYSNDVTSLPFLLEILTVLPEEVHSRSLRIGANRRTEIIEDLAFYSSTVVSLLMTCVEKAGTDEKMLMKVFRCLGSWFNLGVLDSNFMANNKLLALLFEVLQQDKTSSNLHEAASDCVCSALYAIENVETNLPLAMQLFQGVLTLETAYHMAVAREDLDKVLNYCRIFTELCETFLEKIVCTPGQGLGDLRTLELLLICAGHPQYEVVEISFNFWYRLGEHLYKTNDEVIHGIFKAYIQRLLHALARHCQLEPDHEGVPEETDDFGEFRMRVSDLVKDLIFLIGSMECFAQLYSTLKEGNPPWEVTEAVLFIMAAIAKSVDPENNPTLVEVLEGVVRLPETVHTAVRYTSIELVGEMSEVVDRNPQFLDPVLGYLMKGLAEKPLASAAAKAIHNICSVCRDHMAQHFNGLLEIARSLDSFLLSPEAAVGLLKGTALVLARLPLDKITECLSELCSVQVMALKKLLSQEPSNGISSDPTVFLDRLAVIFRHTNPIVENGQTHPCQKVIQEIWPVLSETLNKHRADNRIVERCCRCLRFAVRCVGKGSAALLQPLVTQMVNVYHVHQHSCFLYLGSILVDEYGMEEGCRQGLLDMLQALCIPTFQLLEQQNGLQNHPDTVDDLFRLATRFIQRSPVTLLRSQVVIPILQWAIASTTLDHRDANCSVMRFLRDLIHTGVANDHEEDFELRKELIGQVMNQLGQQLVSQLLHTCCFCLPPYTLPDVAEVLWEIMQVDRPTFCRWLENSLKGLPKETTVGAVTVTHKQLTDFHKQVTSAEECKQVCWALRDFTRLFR
Test: ITC
QUANTITY KIND: Kd (nM)
The reply should contain only the number, in nM.

Problem: Fill in the blank: the reported Kd of GGSYRDSYDSYATHNE (also called mCIRBP^RSY; source: synthetic peptide (Peptide Specialty Laboratories GmbH)) [CIRBP (157-172) synthetic peptide, wild type] is ____.
Solution: 1180
